Data origin, for the record: patent US20240076386A1

# Tested on: T1, human E-selectin extracellular domain with 10 His purification tail (human, UniProt P16581 22-556)
# T1 construct: also called soluable human E-selectin extracellular domain; rhE-Selectin
# T1 sequence: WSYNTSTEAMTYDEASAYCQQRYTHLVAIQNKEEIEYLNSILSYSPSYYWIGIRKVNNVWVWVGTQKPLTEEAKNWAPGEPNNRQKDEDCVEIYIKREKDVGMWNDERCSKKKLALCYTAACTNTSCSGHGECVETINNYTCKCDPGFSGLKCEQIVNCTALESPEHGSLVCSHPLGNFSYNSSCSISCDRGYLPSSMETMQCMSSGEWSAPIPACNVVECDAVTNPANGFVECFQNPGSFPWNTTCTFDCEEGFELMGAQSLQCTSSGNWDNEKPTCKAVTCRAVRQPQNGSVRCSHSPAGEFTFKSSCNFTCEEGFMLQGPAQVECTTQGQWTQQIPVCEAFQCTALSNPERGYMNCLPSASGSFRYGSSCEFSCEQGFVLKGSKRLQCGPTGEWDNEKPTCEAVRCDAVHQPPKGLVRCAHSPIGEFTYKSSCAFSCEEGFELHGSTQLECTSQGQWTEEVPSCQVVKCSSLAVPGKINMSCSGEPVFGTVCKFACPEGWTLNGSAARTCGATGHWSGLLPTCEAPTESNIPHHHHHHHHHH
# Procedure details: SPR, antibody captured, E-selectin analyte

- Binder: "anti-E-selectin antibody 0159 chimera (antibody, human IgG1, kappa, V domains shown, rat VH/VL on effector-null human IgG1 and human kappa) VH: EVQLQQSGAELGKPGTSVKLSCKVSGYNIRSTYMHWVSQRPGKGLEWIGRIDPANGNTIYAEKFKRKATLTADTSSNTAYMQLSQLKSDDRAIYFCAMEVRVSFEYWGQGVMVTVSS VL: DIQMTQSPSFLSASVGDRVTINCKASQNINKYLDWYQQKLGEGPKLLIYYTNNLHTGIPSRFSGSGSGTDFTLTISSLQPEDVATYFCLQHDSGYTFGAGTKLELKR"
  Reading unit: "M⁻¹ s⁻¹"
  kon: 115000
- Binder: "anti-E-selectin antibody 0158 chimera (antibody, human IgG1, kappa, V domains shown, rat VH/VL on effector-null human IgG1 and human kappa) VH: QVQLKESGPGLVQPSETLSLTCTVSGFSISTYNVHWLRQPPGKGLEWMGMMWSGGSPDYNSALKSRLSISRDTSKNQVFLKMNSLQSEDTTTYYCARWGGGFDYWGQGVMVTVSS VL: DIVLTQSPTTLSVTPGETVSLSCRASHSIGTNLHWYQQKTNESPRLLIKFTSQSISGIPSRFSASGSGTDFTLNINNVEFDDVSSYFCQQTQSWPLTFGSGTKLEIKR"
  Reading unit: "M⁻¹ s⁻¹"
  kon: 81000
